Data origin: paper PMC11862134

EXPERIMENTAL_TARGET: GST-tagged TaCLV1-LRR (extracellular domains of TaCLV1, residues 58-668) (wheat (Triticum aestivum L.))
PROTOCOL_TEXT: MST
PROPERTY: pKd
Field pKd (float): negative decimal logarithm of the concentration in molar.

// field: pKd; key: RLSPGGSNPQHH [mature TaCLE24b peptide] ; value = 7.71
